EXPERIMENTAL_SYSTEM: Cytochrome P450 2C19 (Homo sapiens, UniProt P33261)
Sequence (P33261 whole entry): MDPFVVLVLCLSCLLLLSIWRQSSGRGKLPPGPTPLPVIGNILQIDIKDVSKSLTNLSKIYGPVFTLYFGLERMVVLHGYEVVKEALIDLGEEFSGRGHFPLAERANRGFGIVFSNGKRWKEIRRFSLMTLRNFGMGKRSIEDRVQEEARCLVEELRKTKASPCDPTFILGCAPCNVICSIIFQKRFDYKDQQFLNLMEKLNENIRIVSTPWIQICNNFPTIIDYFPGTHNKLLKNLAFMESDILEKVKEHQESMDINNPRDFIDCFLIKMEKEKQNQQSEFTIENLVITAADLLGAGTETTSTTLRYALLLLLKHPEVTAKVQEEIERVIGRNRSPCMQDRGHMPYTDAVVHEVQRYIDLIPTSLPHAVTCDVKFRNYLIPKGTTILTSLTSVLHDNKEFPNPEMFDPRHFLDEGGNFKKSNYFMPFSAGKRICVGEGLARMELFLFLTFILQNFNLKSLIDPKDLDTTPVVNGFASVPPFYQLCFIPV
EXPERIMENT: Cytochrome panel assay with activity outcomes. Panel member name: p450-cyp2c19 Compounds with AC50 equal or less than 10 uM are considered active
Type: functional
PARTICULARS: read-out: AC50
I'd appreciate it if you could supply AC50 values for the items below.

Suppose we examine the compound `COCCn1c(C(=O)N2CCCC2)cc2c1C[C@H]1CN(C(=O)c3ccccc3)[C@@](Cc3ccc(F)cc3)(C(=O)OC)[C@@H]21` ; what AC50 value has been reported? 25.1 µM (inconclusive)

Repeat with Cc1ccc(C2C(C(=O)c3ccccc3)=C(O)C(=O)N2CCN2CCOCC2)o1 (stereo not drawn) 14.1 µM (inconclusive)

Check `COC(=O)C/C=C\[C@@H](C)[C@@H](/C=N\O[C@@H](C)c1cc(-c2c(C)cc(C)cc2C)no1)OC` too. 2.51 µM (inconclusive)

---

EXPERIMENTAL_SYSTEM: Caspase-6 (Homo sapiens)
Sequence (P55212 24-179 limits assumed): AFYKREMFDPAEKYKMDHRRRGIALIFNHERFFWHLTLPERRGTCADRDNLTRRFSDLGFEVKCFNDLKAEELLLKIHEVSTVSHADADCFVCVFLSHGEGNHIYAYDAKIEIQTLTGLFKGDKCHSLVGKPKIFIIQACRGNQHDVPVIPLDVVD
Sequence (P55212 194-293 limits assumed): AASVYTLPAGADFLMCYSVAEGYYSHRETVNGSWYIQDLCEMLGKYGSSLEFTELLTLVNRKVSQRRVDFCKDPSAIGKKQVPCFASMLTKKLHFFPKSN
EXPERIMENT: human caspase-6 inhibitors, dose response, biochemical, VEID-R110 fluorescence, cherry-pick (AID 720632)
Calls of active or inactive are those of the source.
Field: AC50. Provide a value for each of the molecules that follow.

Need AC50 of `O=C(CSc1ccsc1[N+](=O)[O-])Nc1cccc(F)c1` , thanks. 16.3 µM (active)

Okay, and `CCCCn1c(NC(=O)c2ccccc2Cl)c(C#N)c2nc3ccccc3nc21` ? 14.1 µM (active)

Follow-up item: CCC12CCCN3CCc4c(n(c5ccccc45)C(O)(C(=O)OC)C1)C32 (stereo not drawn) 21.7 µM (active)

---

EXPERIMENTAL_SYSTEM: Fatty acid synthase (Homo sapiens, UniProt P49327)
Sequence (P49327 whole entry, the tested form may be a part): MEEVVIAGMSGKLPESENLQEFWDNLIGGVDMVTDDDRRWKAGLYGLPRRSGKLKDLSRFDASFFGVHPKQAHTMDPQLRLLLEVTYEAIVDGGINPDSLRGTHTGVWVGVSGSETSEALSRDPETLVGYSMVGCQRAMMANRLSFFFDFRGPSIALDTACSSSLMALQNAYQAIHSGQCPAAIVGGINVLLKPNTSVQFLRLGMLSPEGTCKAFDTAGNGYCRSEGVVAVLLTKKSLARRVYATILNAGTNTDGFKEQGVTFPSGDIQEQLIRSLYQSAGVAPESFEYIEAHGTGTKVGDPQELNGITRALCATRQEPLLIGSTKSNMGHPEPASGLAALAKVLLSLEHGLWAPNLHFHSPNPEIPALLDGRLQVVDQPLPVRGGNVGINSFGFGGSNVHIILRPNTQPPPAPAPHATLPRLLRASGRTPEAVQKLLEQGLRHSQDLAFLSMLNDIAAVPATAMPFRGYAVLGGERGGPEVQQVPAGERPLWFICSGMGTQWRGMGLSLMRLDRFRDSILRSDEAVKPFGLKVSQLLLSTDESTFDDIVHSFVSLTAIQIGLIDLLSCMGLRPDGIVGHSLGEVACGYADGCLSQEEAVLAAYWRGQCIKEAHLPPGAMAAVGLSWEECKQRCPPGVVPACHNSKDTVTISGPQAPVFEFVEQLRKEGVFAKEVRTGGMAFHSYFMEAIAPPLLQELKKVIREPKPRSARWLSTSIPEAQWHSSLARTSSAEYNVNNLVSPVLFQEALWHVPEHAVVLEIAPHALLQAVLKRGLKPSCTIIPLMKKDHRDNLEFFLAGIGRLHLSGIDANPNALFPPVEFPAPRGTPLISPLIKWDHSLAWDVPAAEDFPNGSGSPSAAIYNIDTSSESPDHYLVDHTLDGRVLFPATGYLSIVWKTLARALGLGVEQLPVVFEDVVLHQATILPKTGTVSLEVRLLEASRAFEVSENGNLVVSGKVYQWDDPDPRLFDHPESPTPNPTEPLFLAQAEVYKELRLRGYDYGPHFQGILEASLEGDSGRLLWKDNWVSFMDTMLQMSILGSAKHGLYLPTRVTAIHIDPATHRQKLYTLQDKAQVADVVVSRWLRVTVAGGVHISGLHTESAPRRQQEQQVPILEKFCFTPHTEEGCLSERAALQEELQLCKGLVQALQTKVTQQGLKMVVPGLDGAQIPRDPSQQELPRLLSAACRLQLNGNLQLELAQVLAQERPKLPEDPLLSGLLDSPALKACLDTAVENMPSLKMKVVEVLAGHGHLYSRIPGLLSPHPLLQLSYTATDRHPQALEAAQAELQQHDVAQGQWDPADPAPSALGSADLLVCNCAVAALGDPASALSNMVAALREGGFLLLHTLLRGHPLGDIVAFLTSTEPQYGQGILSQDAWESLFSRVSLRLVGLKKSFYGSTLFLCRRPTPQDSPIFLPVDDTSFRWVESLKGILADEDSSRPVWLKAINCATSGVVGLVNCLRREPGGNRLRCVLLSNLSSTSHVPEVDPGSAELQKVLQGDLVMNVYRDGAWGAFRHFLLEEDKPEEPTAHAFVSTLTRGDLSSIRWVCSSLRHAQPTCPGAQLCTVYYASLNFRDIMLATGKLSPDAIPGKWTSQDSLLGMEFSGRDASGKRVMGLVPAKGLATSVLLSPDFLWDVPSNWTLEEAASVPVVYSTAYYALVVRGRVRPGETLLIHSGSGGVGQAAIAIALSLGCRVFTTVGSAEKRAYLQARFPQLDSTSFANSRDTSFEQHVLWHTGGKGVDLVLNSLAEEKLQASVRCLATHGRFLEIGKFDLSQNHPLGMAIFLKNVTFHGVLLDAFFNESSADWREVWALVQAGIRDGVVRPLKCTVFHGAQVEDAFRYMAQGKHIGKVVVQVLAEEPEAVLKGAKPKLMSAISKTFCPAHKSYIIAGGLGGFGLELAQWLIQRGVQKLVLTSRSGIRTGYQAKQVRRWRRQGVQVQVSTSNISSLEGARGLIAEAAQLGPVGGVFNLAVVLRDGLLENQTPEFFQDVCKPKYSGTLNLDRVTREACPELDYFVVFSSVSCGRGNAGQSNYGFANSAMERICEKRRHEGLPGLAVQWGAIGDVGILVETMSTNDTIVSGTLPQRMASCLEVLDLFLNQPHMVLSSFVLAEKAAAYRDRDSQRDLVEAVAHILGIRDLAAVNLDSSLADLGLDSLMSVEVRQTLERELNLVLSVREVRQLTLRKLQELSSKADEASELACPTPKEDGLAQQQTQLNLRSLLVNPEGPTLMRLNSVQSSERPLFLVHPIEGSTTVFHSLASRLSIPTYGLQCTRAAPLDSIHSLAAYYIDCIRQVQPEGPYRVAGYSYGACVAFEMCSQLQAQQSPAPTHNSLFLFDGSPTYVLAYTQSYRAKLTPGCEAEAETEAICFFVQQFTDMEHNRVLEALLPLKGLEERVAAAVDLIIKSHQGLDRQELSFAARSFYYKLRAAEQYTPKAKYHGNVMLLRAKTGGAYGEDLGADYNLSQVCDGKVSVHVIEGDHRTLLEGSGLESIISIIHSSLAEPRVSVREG
EXPERIMENT: FAS thioesterase domain inhibitors, dose response, biochemical, kinetic fluorescence intensity (AID 624326);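 further: rate of fluorescence rise from hydrolysis of a fluorogenic O-methyl fluorescein ester substrate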
Assay type: functional
Active and inactive are the calls of the source.
PROPERTY_MEASURED: IC50

Item under review: `CCOC(=O)c1c(NC(=O)CSc2nnc(-c3ccccc3C)n2C)sc(C(C)=O)c1C` . Reported IC50? 3.03 µM (active)

Cool, now `CC(C)(C)NC(=O)NC(=O)COC(=O)C1CCN(S(=O)(=O)c2cccs2)CC1` 9.75 µM (active)

Please give the result for `O=C(CCC(=O)Nc1ccc(F)cc1)N/N=C/c1cc([N+](=O)[O-])ccc1O` too. 15.1 µM (active)

Now consider `COc1cc(CNc2nc(C)c([N+](=O)[O-])c(C)c2C#N)cc(OC)c1OC` . 80 µM (inactive)

Also check CC1CCc2c(sc3nc(CN4CCN(S(=O)(=O)c5ccccc5[N+](=O)[O-])CC4)nc(O)c23)C1 (stereo not given) 4.55 µM (active)

---

EXPERIMENTAL_SYSTEM: Paired box protein Pax-8 (Homo sapiens)
Sequence (Q06710 whole entry): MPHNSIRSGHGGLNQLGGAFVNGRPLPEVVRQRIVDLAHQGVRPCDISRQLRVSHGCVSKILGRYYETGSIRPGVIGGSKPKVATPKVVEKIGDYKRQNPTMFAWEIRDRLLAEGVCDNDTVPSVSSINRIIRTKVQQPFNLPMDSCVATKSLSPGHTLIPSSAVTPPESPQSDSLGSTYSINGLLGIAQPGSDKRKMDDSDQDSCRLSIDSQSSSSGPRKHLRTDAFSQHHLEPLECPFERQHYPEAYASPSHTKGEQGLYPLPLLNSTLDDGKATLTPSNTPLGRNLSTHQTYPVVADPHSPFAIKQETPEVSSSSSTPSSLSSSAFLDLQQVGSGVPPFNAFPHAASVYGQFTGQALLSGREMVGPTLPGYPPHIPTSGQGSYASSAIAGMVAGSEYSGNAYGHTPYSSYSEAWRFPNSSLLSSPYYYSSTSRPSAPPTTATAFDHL
EXPERIMENT: inhibitors of PAX8-driven TPO luciferase reporter, dose response, RMG-I cells, cherry-pick (AID 687027);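 further: luciferase reporter driven by Pax8 target thyroperoxidase promoter measured by SteadyGlo luminescence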
Format: functional, cell-based
Active and inactive are the calls of the source.
Assignment: determine reported AC50 for the given molecules.

What AC50 appears in the records for this molecule with Paired box protein Pax-8 (Homo sapiens)? `C[C@@H]1CCCCO[C@H](CN(C)C(=O)Nc2ccc(C(F)(F)F)cc2)[C@H](C)CN([C@@H](C)CO)C(=O)c2cc(NS(=O)(=O)c3ccc(Cl)cc3)ccc2O1` 16.4 µM (active)

Would you kindly repeat that for OC[C@H]1O[C@@H](n2cnc3c(NCc4ccco4)ncnc32)[C@H](O)[C@@H]1O [KINETIN RIBOSIDE] ? 2.25 µM (active)

Try this molecule too: `C[C@@H]1CN([C@@H](C)CO)S(=O)(=O)c2ccc(C#CC3CCCC3)cc2O[C@H]1CN(C)Cc1cccnc1` 8.33 µM (active)

Also, `C[C@@H]1CCCCO[C@@H](CN(C)C(=O)Nc2cccc3ccccc23)[C@H](C)CN([C@H](C)CO)C(=O)c2cc(NS(=O)(=O)c3ccccc3)ccc2O1` please. 3.66 µM (active)

Also C=C1C2(C(=O)Nc3ccc(SC(F)F)cc3)CCC(C2)C1(C)C (stereo unspecified) , if possible. 62.8 µM (active)

Proceed to `CCC(=O)OCCNc1cc(Sc2nccn2C)c2nonc2c1[N+](=O)[O-]` 7.53 µM (active)
